Taken from the antibiotic and cytotoxicity screens of Wong et al. (2023).

tested on: HepG2; assay: cytotoxicity call (relative viability < 0.9); settings: 10 µM
Screen size: about 39,000 compounds; about 3,300 (8.5%) were called active. The list comes from a sample in which actives are over-represented; it also holds close analogues and randomly drawn compounds.
Possible outcomes: active, inactive

[
  {
    "Chemical String": "C[C@@H]1CCCCO[C@H](CN(C)C(=O)Nc2ccc(C(F)(F)F)cc2)[C@@H](C)CN([C@H](C)CO)C(=O)c2cc(NC(=O)c3ccncc3)ccc2O1",
    "Label": "inactive"
  },
  {
    "Chemical String": "COc1ccccc1CN(C)C[C@H]1OCc2ccccc2-c2c(n(C)c3ccccc23)C(=O)N([C@@H](C)CO)C[C@@H]1C",
    "Label": "inactive"
  },
  {
    "Chemical String": "C[C@H](CO)N1C[C@H](C)[C@@H](CN(C)Cc2ccc(C(=O)Nc3ccccc3N)cc2)Oc2ccc(NC(=O)Nc3ccc(C(F)(F)F)cc3)cc2C1=O",
    "Label": "inactive"
  },
  {
    "Chemical String": "Cc1noc(C)c1S(=O)(=O)N(C)C[C@H]1Oc2c(NC(=O)c3cnccn3)cccc2C(=O)N([C@H](C)CO)C[C@H]1C",
    "Label": "inactive"
  },
  {
    "Chemical String": "C[C@@H]1CN([C@H](C)CO)C(=O)c2cccc(NC(=O)c3ccncc3)c2O[C@H]1CN(C)C(=O)Nc1ccc2c(c1)OCO2",
    "Label": "inactive"
  },
  {
    "Chemical String": "C[C@@H]1CCCCO[C@@H](CN(C)C(=O)Nc2ccccc2)[C@H](C)CN([C@H](C)CO)C(=O)c2cc(NC(=O)Nc3ccc(C(F)(F)F)cc3)ccc2O1",
    "Label": "inactive"
  },
  {
    "Chemical String": "COc1ccc(S(=O)(=O)N(C)C[C@H]2Oc3ccc(NC(=O)CCC(F)(F)F)cc3CC(=O)N([C@H](C)CO)C[C@H]2C)cc1",
    "Label": "inactive"
  },
  {
    "Chemical String": "COc1ccccc1CN(C)C[C@@H]1OCc2ccccc2-c2c(n(C)c3ccccc23)C(=O)N([C@H](C)CO)C[C@H]1C",
    "Label": "inactive"
  },
  {
    "Chemical String": "C[C@@H]1CN([C@H](C)CO)C(=O)c2c(c3ccccc3n2C)-c2ccccc2CO[C@H]1CN(C)Cc1ccccc1",
    "Label": "active"
  },
  {
    "Chemical String": "COc1ccc(NC(=O)N(C)C[C@H]2Oc3c(NS(=O)(=O)c4cn(C)cn4)cccc3C(=O)N([C@H](C)CO)C[C@@H]2C)cc1",
    "Label": "inactive"
  },
  {
    "Chemical String": "C[C@@H]1CN([C@@H](C)CO)C(=O)c2c(c3ccccc3n2C)-c2ccccc2CO[C@H]1CN(C)Cc1ccccc1C(F)(F)F",
    "Label": "inactive"
  },
  {
    "Chemical String": "C[C@H](CO)N1C[C@H](C)[C@H](CN(C)Cc2ccccc2)OCc2ccccc2-c2c(n(C)c3ccccc23)C1=O",
    "Label": "inactive"
  },
  {
    "Chemical String": "COCC(=O)N(C)C[C@@H]1Oc2cc(C#Cc3ccccc3)ccc2S(=O)(=O)N([C@H](C)CO)C[C@@H]1C",
    "Label": "inactive"
  },
  {
    "Chemical String": "C[C@H]1CN([C@@H](C)CO)C(=O)c2cc(NC(=O)Nc3ccc(C(F)(F)F)cc3)ccc2O[C@H]1CN(C)Cc1ccc(C(=O)Nc2ccccc2N)cc1",
    "Label": "inactive"
  }
]
